- Test system: OVCAR-5 ovarian
- Experiment Summary: NCI tumour cell line growth inhibition, 48 h
Measure: TGI

The value of TGI measured for the molecule COC(=O)CNc1nc(N(C)O)nc(N(C)O)n1 turned out to be > 100 µM

The value of TGI measured for the molecule O=C(O)C12CCC(CC1=O)C2 (stereo not given) turned out to be > 100 µM

The value of TGI measured for the molecule COc1ccc(N=Cc2ccc(N(CCC#N)S(=O)(=O)c3ccccc3)cc2C)cc1 turned out to be > 100 µM

The value of TGI measured for the molecule Cn1c(-c2c(N)n(Cc3ccc(F)cc3)c3nc(C#N)c(C#N)nc23)nc2ccccc21 turned out to be > 50 µM

The value of TGI measured for the molecule Cc1ccc(S(=O)(=O)OCCOCCOCCOCCOCCOS(=O)(=O)c2ccc(C)cc2)cc1 turned out to be > 100 µM

The value of TGI measured for the molecule Cc1cc2c(cc1Cl)SC(c1ccccc1O)NS2(=O)=O (stereo not given) turned out to be > 100 µM

The value of TGI measured for the molecule C/C=C\C(CC(=O)OC)CC(=O)N(CCC1CN(S(=O)(=O)C(F)(F)F)c2ccccc21)Cc1ccc(OC)cc1OC (stereo not given) turned out to be > 100 µM

The value of TGI measured for the molecule CCCC[C@H]1C(=O)O[C@H](C)[C@H](NC(=O)c2cccc(NC=O)c2OC)C(=O)O[C@@H](C)[C@@H]1OC(=O)CC(C)C (tested in a mixture with another compound) turned out to be 51.6 µM

The value of TGI measured for the molecule CC1=N[C@@](C)(C2CC3C=CC2C3=O)COC1=O (stereo not given in full) turned out to be > 100 µM

The value of TGI measured for the molecule C=C1CC2C3C=C(C)C4=CC(=O)CC[C@]4(C)C3CC[C@]2(C)[C@@]1(OC(C)=O)C(C)=O (stereo not given in full) turned out to be > 100 µM

The value of TGI measured for the molecule C(#CC1(Nc2ccccc2)CCN(Cc2ccccc2)CC1)C1(Nc2ccccc2)CCN(Cc2ccccc2)CC1 turned out to be > 56.2 µM

The value of TGI measured for the molecule COc1cc(/C=C/C(=O)c2c(-c3ccc(F)cc3)nc3sc(C)nn23)cc(OC)c1OC turned out to be 9.92 µM

The value of TGI measured for the molecule CCCCCCCCCCCCSC(=S)c1c(C)[nH]n(CCCCCCCCCCCC)c1=O turned out to be > 100 µM

The value of TGI measured for the molecule COc1ccc(OC)c(/C=C/c2ccnc3ccccc23)c1 turned out to be 16 µM

The value of TGI measured for the molecule COc1ccc(N=Nc2c(N)nn(C)c2N)cc1 turned out to be > 100 µM

The value of TGI measured for the molecule COC(=O)c1oc2c(C(=O)/C=C/c3ccc(OC)cc3)c(OCCN3CCOCC3)ccc2c1C turned out to be 6.68 µM

The value of TGI measured for the molecule N#CC1=C(N)Oc2c(sc3c(Br)cccc23)C1c1ccc(Cl)cc1 (stereo not given) turned out to be 5.98 µM

The value of TGI measured for the molecule Cc1ccc(Sc2ccccc2N)cc1 turned out to be > 100 µM

The value of TGI measured for the molecule O=[N+]([O-])c1ccc2c(c1)C(c1ccccc1Cl)=Nc1c(n[nH]c1-c1cccnc1)N2 turned out to be > 25 µM

The value of TGI measured for the molecule COc1ccc2c(c1)C(c1cc(OC)c3c(c1)OCO3)C1=C(COC1=O)N2 (stereo not given) turned out to be > 100 µM
